# Tested on: TO-N3 (biotin conjugate)
# testSummary: pull-down binding Z-score (relative to library population); higher = stronger binding
# appliedConditions: RNA library: Library-2
resultType: pull-down binding Z-score
The answer should be a number; do not append a unit.

Some solved cases for reference:
1. UCCUAAAGUGAAGUAUUUAUACUUUAUUAAAGGA [SHAPE_invitro_SARS-CoV-2_Motif_235]    -1.44
2. GGAGAGUGUGGACACUUAUGAAUGUCUUGACACUCGUU [SHAPE_invitro_SARS-CoV-2_Motif_211]    0.586
3. CUGAAAAAUGGGAAUCUGGAGUAAAAGACUGUGUUGUAUUACACAGUUACUUCACUUCAGACUAUUACCAG    -0.329

Short answer for GAAAUGUGUGGAAGAUGGCAUUUC [hsa-mir-4482] : pull-down binding Z-score was -0.302

Short answer for UCCAAACGCAAGCUUCGAUAAUUUUAAGUUUGUAUGUGA [SHAPE_invivo_SARS-CoV-2_Motif_125] : pull-down binding Z-score was -0.589

Short answer for GGUACAACAACUUACAAAUUAAAUGUUGGUGAUUAUUUUGUGCU [SHAPE_invivo_SARS-CoV-2_Motif_319] : pull-down binding Z-score was -0.509

Short answer for GGCUCCUGGCGCUGAUGCC [hsa-mir-6886] : pull-down binding Z-score was 1.15

Short answer for UGCAGAUUUGGAUGAUUUCUCCAAACAAUUGCA : pull-down binding Z-score was -0.0544

Short answer for CUUCUGCUGCUCUUCAACCUGAAGAAGAGCAAGAAGAAG : pull-down binding Z-score was -0.368
